Biological target: hSERT (Homo sapiens, UniProt P31645)
Construct: expressed in transfected cells; host or cells: HEK-293 derived cell line, stably transfected; membrane preparation
Sequence (P31645 whole entry): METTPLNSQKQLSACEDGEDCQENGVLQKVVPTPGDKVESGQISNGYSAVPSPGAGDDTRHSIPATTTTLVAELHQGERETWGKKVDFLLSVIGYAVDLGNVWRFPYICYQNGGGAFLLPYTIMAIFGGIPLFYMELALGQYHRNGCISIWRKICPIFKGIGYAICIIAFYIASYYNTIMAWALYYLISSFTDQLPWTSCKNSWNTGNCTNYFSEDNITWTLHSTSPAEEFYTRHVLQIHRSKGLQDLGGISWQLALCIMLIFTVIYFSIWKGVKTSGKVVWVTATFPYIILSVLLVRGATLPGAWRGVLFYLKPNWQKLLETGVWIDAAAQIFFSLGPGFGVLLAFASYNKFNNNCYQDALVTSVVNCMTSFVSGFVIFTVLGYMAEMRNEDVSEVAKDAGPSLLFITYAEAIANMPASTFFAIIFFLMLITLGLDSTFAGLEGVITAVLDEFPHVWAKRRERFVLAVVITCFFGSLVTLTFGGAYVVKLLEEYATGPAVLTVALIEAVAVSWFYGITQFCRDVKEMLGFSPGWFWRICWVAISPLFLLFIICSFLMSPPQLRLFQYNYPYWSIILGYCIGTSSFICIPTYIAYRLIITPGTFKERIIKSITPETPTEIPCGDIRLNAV
Assay: hSERT binding assay (Assay 1)
Conditions: ratio of binding Ki at hSERT to Ki at hNET, rounded off to the nearest tenth
measureName: SERT Ki/NET Ki
One number for each entry.

Field: example entries. Status: answers known.
molecule	SERT Ki/NET Ki
COc1ccccc1OC(c1ccccc1Cl)C1CCNC1 (stereo not shown) [Compound 20-16]	4
CCC(=O)c1ccccc1OC(c1ccccc1)C1CCNC1 (stereo not shown) [Compound 19-27]	100
Cc1cccc(OC(c2ccccc2)C2CCNC2)c1C (stereo not shown) [Compound 25-23]	0.1
Cc1cccc(O[C@@H](c2ccccc2)[C@H]2CCNC2)c1C [Compound 25-24]	0.3
CC(C)c1ccccc1OC(c1cccc(F)c1)C1CCNC1 (stereo not shown) [Compound 20-13]	10

Kindly give each listed record's SERT Ki/NET Ki.
1. CCc1ccccc1OC(c1ccccc1)C1CCNC1 (stereo not shown) [Compound 19-11]
2. Clc1ccccc1OC(c1ccccc1Cl)C1CCNC1 (stereo not shown) [Compound 20-1]
3. c1ccc(COc2ccc(OC(c3ccccc3)C3CCNC3)cc2)cc1 (stereo not shown) [Compound 23-15]
4. Cc1c(Cl)cccc1O[C@H](c1ccccc1)[C@@H]1CCNC1 [Compound 25-22]
5. Cc1cccc([C@@H](Oc2ccccc2Cl)[C@@H]2CCNC2)c1 (racemic) [Compound 20-6]
6. Brc1cccc(OC(c2ccccc2)C2CCNC2)c1 (stereo not shown) [Compound 21-5]
7. c1ccc(Cc2ccccc2OC(c2ccccc2)C2CCNC2)cc1 (stereo not shown) [Compound 19-21]
8. CSc1ccccc1OC(c1ccccc1)C1CCNC1 (stereo not shown) [Compound 19-29]

4
0.5
2
0.2
1.6
0.2
5
25

Kindly give each listed record's SERT Ki/NET Ki.
1. Clc1cccc(OC(c2cccc(Cl)c2)C2CCNC2)c1 (stereo not shown) [Compound 22-4]
2. Cc1c(Cl)cccc1OC(c1ccccc1)C1CCNC1 (stereo not shown) [Compound 25-21]
3. COc1ccccc1OC(c1cccc(CO)c1)C1CCNC1 (stereo not shown) [Compound 20-26]
4. FC(F)(F)c1ccccc1OC(c1ccccc1)C1CCNC1 (stereo not shown) [Compound 19-13]

[0.2, 0.6, 10, 7.9]

Kindly give each listed record's SERT Ki/NET Ki.
1. CCC(=O)c1ccccc1OC(c1ccccc1)C1CCNC1 (stereo not shown) [Compound 19-26]
2. Fc1cccc(O[C@H](c2ccccc2)[C@@H]2CCNC2)c1F [Compound 25-2]
3. Fc1ccc(Oc2cccc(O[C@H](c3ccccc3)[C@@H]3CCNC3)c2)cc1 (racemic) [Compound 21-15]
4. CSc1ccccc1OC(c1ccccc1)C1CCNC1 (stereo not shown) [Compound 19-30]
5. COc1ccccc1OC(c1ccc(Cl)cc1)C1CCNC1 (stereo not shown) [Compound 20-21]
6. COc1ccccc1OC(c1cccc(C(N)=O)c1)C1CCNC1 (stereo not shown) [Compound 20-30]
7. COc1cccc(C(Oc2ccccc2Cl)C2CCNC2)c1 (stereo not shown) [Compound 20-7]
8. Cc1c(F)cccc1OC(c1ccccc1)C1CCNC1 (racemic) [Compound 25-17]

[50, 0.2, 1, 63, 4, 25, 1.3, 0.2]

Kindly give each listed record's SERT Ki/NET Ki.
1. COc1cccc(C(Oc2ccccc2C(C)C)C2CCNC2)c1 (stereo not shown) [Compound 20-10]
2. Fc1cccc(C(Oc2cccc(Cl)c2)C2CCNC2)c1 (stereo not shown) [Compound 22-3]

[2.5, 0.1]

Record Clc1cccc(Oc2cccc(OC(c3ccccc3)C3CCNC3)c2)c1 (stereo not shown) [Compound 21-14] , field SERT Ki/NET Ki: 0.8
